- assayedSystem: T1, recombinant human G-CSF (Genscript) (human, UniProt P09919-2 31-204, limits assumed)
- T1 construct: also called hG-CSF; granulocyte colony stimulating factor
- T1 sequence (looked up): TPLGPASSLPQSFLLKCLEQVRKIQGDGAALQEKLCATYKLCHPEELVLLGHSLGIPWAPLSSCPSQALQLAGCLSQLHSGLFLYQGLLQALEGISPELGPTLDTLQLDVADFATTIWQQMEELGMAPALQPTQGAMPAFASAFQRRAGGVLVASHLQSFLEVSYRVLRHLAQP
- methodNotes: SPR (Antigen binding (SPR)); antibody captured on an anti-Fc surface, antigen flowed over; column head Koff (10-4 x s-1)
quantityName: koff
Write the numeric value and append its unit.

binder: humanized 1B11 antibody variant 13 (h2L/h2H) (antibody, V domains shown, variable domains only; also called clone 13) VH: QVQLVQSGAEVKKPGASVKVSCKASGYTFPIYTMHWIRQAPGQGLEWIGYINPSIGYANYNQKFRDRATLTADTSTSTAYMELSSLRSEDTAVYYCARGGYGDSLFAYWGQGTLVTVSS VL: DIVMTQSPLSLPVTPGEPASISCRSSKSLLHSNGITYLYWYLQKPGQSPQLLIYQMSNLASGVPDRFSSSGSGTDFTLKISRVEAEDVGVYYCAQNLELPYTFGQGTKLEIK
koff: 0.00012 s⁻¹

For each listed entry, give its koff.
1. humanized 1B11 antibody variant 9 (h1L/h3H) (antibody, V domains shown, variable domains only; also called clone 9) VH: QVQLVQSGAEVKKPGASVKVSCKASGYTFPIYTMHWIKQAPGQGLEWIGYINPSIGYANYNQKFRDRATLTADKSTSTAYMELSSLRSEDTAVYYCARGGYGDSLFAYWGQGTLVTVSS VL: DIVMTQSPLSLPVTPGEPASISCRSSKSLLHSNGITYLYWYLQKPGQSPQLLIYQMSNLASGVPDRFSGSGSGTDFTLKISRVEAEDVGVYYCAQNLELPYTFGQGTKLEIK
2. humanized 1B11 antibody variant 10 (h1L/h4H) (antibody, V domains shown, variable domains only; also called clone 10) VH: QVHLVQSGAEVKKPGASVKVSCKASGYTFPIYTMHWIKQAPGQGLEWIGYINPSIGYANYNQKFRDKATLTADKSTSTAYMELSSLRSEDTAVYYCARGGYGDSLFAYWGQGTLVTVSS VL: DIVMTQSPLSLPVTPGEPASISCRSSKSLLHSNGITYLYWYLQKPGQSPQLLIYQMSNLASGVPDRFSGSGSGTDFTLKISRVEAEDVGVYYCAQNLELPYTFGQGTKLEIK

Result:
["0.00017 s⁻¹", "0.00015 s⁻¹"]
